# credit: the COVID Moonshot data (paper PMC11187573)

# tgt: SARS-CoV-2 Main Protease (SARS-CoV-2) (UniProt P0DTD1)
# condition_context: 20.0 µM
measurement_label: inhibition (%)
Note: unit % is implicit; provide only the numeric part.

Use these answered entries as a reference point.
molecule | tgt | units_text | reported_value
C=CC(=O)N(c1cc(C(C)(C)C)on1)C(C(=O)NC(C)(C)C)c1cccnc1 (configuration not stated) | SARS-CoV-2 Main Protease (SARS-CoV-2) (UniProt P0DTD1) | % | 28.7
Nc1ncncc1CNC(=O)Nc1ccccc1OCCn1ccnc1 | SARS-CoV-2 Main Protease (SARS-CoV-2) (UniProt P0DTD1) | % | 1.47
CNS(=O)(=O)Cc1ccc2[nH]cc(CCN(C)C)c2c1 | SARS-CoV-2 Main Protease (SARS-CoV-2) (UniProt P0DTD1) | % | 0
COc1ccccc1OCCNC(=O)c1cc(=O)[nH]c2ccccc12 | SARS-CoV-2 Main Protease (SARS-CoV-2) (UniProt P0DTD1) | % | 70.1
C=CC(=O)N(c1ccc(C(F)(F)F)cc1)C(C(=O)Nc1ccccc1Br)c1cccnc1 (configuration not stated) | SARS-CoV-2 Main Protease (SARS-CoV-2) (UniProt P0DTD1) | % | 9.6
O=C(NCc1cncs1)Nc1cccc(N2CCOCC2)c1 | SARS-CoV-2 Main Protease (SARS-CoV-2) (UniProt P0DTD1) | % | 0.672
C=CC(=O)N(c1ccc(N2CCC2)cc1)C(C(=O)NC(C)(C)C)c1cccnc1 (configuration not stated) | SARS-CoV-2 Main Protease (SARS-CoV-2) (UniProt P0DTD1) | % | 0
N#CCN1CCN(Cc2cc(Cl)cc3ccccc23)CC1 | SARS-CoV-2 Main Protease (SARS-CoV-2) (UniProt P0DTD1) | % | 10.4

Task: Consider the molecule O=C(CCl)N1CCN(Cc2cccc3ccccc23)CC1 tested on SARS-CoV-2 Main Protease (SARS-CoV-2) (UniProt P0DTD1); state its inhibition.
Result: 100

Task: State inhibition on SARS-CoV-2 Main Protease (SARS-CoV-2) (UniProt P0DTD1). Entry: C=CC(=O)N(c1ccc(C(C)C)nc1)C(C(=O)NC(C)(C)C)c1cccnc1 (configuration not stated)
Result: 0

Task: State the measured inhibition (SARS-CoV-2 Main Protease (SARS-CoV-2) (UniProt P0DTD1)) of C=CC(=O)N(c1ccc(C(C)(C)C)cc1)C(C(=O)Nc1ccccc1OC)c1cccnc1 (configuration not stated)
Result: 0

Task: Report its inhibition with SARS-CoV-2 Main Protease (SARS-CoV-2) (UniProt P0DTD1) as the test system: C=CC(=O)N(c1ccc(C(C)(C)C)cc1)C(C(=O)NC1CCCC1)c1cccnc1 (configuration not stated)
Result: 0

Task: State recorded inhibition with SARS-CoV-2 Main Protease (SARS-CoV-2) (UniProt P0DTD1), entry O=C(Cc1c[nH]c2ncccc12)Nc1cccc(Cl)c1 , no comment.
Result: 0

Task: Report the value of inhibition obtained on SARS-CoV-2 Main Protease (SARS-CoV-2) (UniProt P0DTD1) for O=C(CC(=O)N1CCOCC1)Nc1ccccc1 .
Result: 0

Task: Fill: inhibition (SARS-CoV-2 Main Protease (SARS-CoV-2) (UniProt P0DTD1)) for this molecule Nc1nnnn1-c1cccc(C(=O)Nc2c(-c3cccnc3)nc3ccccn23)c1
Result: 11

Task: Write inhibition of Cc1ccncc1NC(=O)Nc1ccccc1 ; system used: SARS-CoV-2 Main Protease (SARS-CoV-2) (UniProt P0DTD1)
Result: 0

Task: For SARS-CoV-2 Main Protease (SARS-CoV-2) (UniProt P0DTD1), give inhibition of the listed molecule: O=C(Cc1c[nH]c2ncccc12)NCc1cc(Cl)ccn1
Result: 0

Task: State measured inhibition of the molecule Cc1ccncc1-c1ccc(S(N)(=O)=O)cc1 with SARS-CoV-2 Main Protease (SARS-CoV-2) (UniProt P0DTD1).
Result: -2.96

Task: Using SARS-CoV-2 Main Protease (SARS-CoV-2) (UniProt P0DTD1) as the test system, report measured inhibition of O=C(NC1CCCCC1NC(=O)c1ccncc1)c1ccccc1 (configuration not stated) .
Result: 0

Task: # assay system SARS-CoV-2 Main Protease (SARS-CoV-2) (UniProt P0DTD1): give inhibition of Cc1ccncc1NC(=O)c1ccc(NC(=O)Nc2cccnc2)cc1
Result: 3.1

Task: Write inhibition of CCC(=O)O[C@@H](OP(=O)(CCCCc1ccccc1)CC(=O)N1C[C@H](C2CCCCC2)C[C@H]1C(=O)O)C(C)C (stereo in doubt) ; system used: SARS-CoV-2 Main Protease (SARS-CoV-2) (UniProt P0DTD1)
Result: 3.17

Task: # assay system SARS-CoV-2 Main Protease (SARS-CoV-2) (UniProt P0DTD1): give inhibition of C=CC(=O)N(C1CCC2(CCCC2)CC1)C(C(=O)NC(C)(C)C)c1cccnc1 (configuration not stated)
Result: 0
